# system_under_test: human CD38 (Homo sapiens)
# Sequence (P28907 whole entry): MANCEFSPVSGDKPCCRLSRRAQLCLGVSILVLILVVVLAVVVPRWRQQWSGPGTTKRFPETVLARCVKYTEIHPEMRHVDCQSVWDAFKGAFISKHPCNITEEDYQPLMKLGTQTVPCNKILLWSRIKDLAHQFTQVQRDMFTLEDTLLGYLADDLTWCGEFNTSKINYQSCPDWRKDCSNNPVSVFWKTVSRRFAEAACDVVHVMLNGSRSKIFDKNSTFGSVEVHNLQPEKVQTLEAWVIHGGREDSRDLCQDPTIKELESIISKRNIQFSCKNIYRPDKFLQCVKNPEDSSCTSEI
# experiment_summary: human recombinant CD38 enzyme assay (hydrolysis of NAD+)
# test_settings: human recombinant CD38, 0.4 nM enzyme, 62.5 μM NAD+; read-out: hCD38 BioChem IC50
Please respond with reported IC50 for every item in the list.
Your answer should be a number followed by the unit of measure.

# input compound: O=C(Nc1ccc(C(F)F)nc1)c1nccc(-n2ccnc2)n1 ; wanted: its IC50
3 nM

# input compound: Cn1cncc1-c1nc(C(=O)N[C@H]2CC[C@H](OC(F)(F)F)CC2)cc(C2CCC(F)(F)CC2)n1 ; wanted: its IC50
41.8 nM

# input compound: Cn1cncc1-c1ccnc(C(=O)NC23CC(C(C)(C)O)(C2)C3)n1 ; wanted: its IC50
251 nM

# input compound: O=C(Nc1ccc(C(F)F)nc1)c1ccnc(-c2cncs2)n1 ; wanted: its IC50
173 nM

# input compound: COc1cc(C(=O)Nc2ccc(C(F)F)nc2)nc(-n2ccnc2)n1 ; wanted: its IC50
2 nM

# input compound: COCCOc1cc(C(=O)Nc2ccc(C(F)F)nc2)nc(-c2cncn2C)n1 ; wanted: its IC50
1.5 nM

# input compound: CO[C@H]1CC[C@H](NC(=O)c2nc(-c3cncn3C)cnc2C)CC1 ; wanted: its IC50
319 nM

# input compound: Cn1cncc1-c1nccc(C(=O)N[C@H]2CC[C@H](C)CC2)n1 ; wanted: its IC50
7 nM

# input compound: O=C(N[C@H]1CC[C@H](C(F)(F)F)CC1)c1ccnc(-n2ccnc2)n1 ; wanted: its IC50
21 nM

# input compound: Cn1cncc1-c1ccnc(C(=O)N[C@H]2C[C@H](c3ccccc3)C2)n1 ; wanted: its IC50
15.2 nM

# input compound: O=C(NC12CC(O)(C1)C2)c1cccc(-n2ccnc2)n1 ; wanted: its IC50
1140 nM

# input compound: O=C(Nc1ccc(C(F)(F)F)nc1)c1ccnc(-c2cncs2)n1 ; wanted: its IC50
194 nM

# input compound: Cn1cncc1-c1ccnc(C(=O)N[C@H]2C[C@H](c3ccc(F)cc3F)C2)n1 ; wanted: its IC50
28.1 nM

# input compound: O=C(N[C@H]1CC[C@H](O)C1)c1nccc(-n2ccnc2)n1 ; wanted: its IC50
1270 nM

# input compound: O=C(N[C@H]1C[C@H](c2cccc(F)c2)C1)c1nccc(-n2ccnc2)n1 ; wanted: its IC50
33.8 nM

# input compound: Cn1cncc1-c1ccnc(C(=O)Nc2ccc(C(F)(F)F)nc2)n1 ; wanted: its IC50
3 nM

# input compound: COc1ccc(NC(=O)c2nccc(-c3cncn3C)n2)cn1 ; wanted: its IC50
4.3 nM

# input compound: Cc1ncccc1NC(=O)c1cccc(-n2ccnc2)n1 ; wanted: its IC50
448 nM

###

# system_under_test: CYP2C8 (Homo sapiens, UniProt P10632)
# Construct: Pooled human microsomes and selective CYP probe substrates were used; from tissue; host or cells: pooled human (hepatic) microsomes
# Sequence (P10632 whole entry): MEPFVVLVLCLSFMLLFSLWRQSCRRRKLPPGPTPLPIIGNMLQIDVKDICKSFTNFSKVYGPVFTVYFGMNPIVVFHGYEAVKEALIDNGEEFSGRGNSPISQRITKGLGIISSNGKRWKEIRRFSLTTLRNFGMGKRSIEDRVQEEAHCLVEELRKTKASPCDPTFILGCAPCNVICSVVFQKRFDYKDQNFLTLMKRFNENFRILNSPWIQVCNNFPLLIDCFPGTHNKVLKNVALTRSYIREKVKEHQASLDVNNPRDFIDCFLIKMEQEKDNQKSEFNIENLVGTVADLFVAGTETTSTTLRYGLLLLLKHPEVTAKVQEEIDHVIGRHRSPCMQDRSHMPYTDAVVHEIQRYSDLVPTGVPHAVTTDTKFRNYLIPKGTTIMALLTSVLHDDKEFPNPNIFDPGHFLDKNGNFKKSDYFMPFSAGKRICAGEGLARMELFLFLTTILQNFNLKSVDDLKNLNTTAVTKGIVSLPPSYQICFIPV
# experiment_summary: time dependent inhibition of CYP450 in pooled human microsomes
# Format: in vitro ADME
# test_settings: pre-incubation 30 min (NO NADPH)
pIC50: −log10 of the molar value.
value_type: pIC50

# input molecule: CO[C@H]1CC[C@H](NC(=O)c2nccc(-c3cncn3C)n2)CC1 ; wanted: its pIC50
< 4.52

###

Please respond with reported IC50 for every item in the list.
# system_under_test: CYP2D6 (Homo sapiens, UniProt P10635)
# Construct: from tissue; host or cells: human liver microsomes (pooled in the time-dependent assay)
# Sequence (P10635 whole entry): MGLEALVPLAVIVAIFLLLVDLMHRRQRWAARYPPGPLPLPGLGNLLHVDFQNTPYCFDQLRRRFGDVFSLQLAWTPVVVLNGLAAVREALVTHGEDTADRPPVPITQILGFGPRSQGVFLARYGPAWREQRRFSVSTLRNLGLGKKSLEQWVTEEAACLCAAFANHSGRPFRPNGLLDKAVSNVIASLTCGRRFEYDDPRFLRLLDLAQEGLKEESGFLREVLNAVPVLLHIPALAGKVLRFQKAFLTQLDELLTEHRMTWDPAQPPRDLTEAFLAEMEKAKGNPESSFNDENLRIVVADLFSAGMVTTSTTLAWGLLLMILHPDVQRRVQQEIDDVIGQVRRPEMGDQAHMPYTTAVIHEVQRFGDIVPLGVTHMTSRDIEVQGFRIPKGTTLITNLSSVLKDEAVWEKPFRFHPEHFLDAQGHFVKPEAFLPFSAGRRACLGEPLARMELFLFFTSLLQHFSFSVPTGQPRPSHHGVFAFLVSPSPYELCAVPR
# experiment_summary: direct inhibition of CYP450 in human liver microsomes
# Format: in vitro ADME
# test_settings: estimated from 3, 10, 50 uM, read-out: CYP2D6 T0 estimated IC50

# input molecule: CO[C@H]1CC[C@H](NC(=O)c2cc(C3(C)COC3)nc(-c3cncn3C)n2)CC1 ; wanted: its IC50
< 50 µM

# input molecule: CC(C)(O)c1ccc(NC(=O)c2nccc(-n3ccnc3)n2)cn1 ; wanted: its IC50
> 50 µM

# input molecule: CO[C@H]1CC[C@H](NC(=O)c2cc(C3CCC(F)(F)CC3)nc(-c3cncn3C)n2)CC1 ; wanted: its IC50
> 50 µM

# input molecule: CO[C@H]1CC[C@H](NC(=O)c2nccc(-n3ccnc3)n2)CC1 ; wanted: its IC50
< 50 µM
